# Tested on: DU-145 cells
# ASSAY TEXT: Protective effects against H2O2-induced oxidative stress in DU-145 cells (MTT)
# Format: cell-based, human
# DETAILS: increase-fold of cell survival; compound 0.0015 mg/mL, 200 µM H2O2, DU-145
Give Increase-fold for every item shown.
Just the number, please, no unit attached.

## Input State recorded Increase-fold with DU-145 cells, entry C=CCNC(=[Se])NC(=O)c1cccc(C(=O)NC(=[Se])NCC=C)c1 , no comment.
## Output 1.0

## Input State recorded Increase-fold with DU-145 cells, entry CCCNC(=[Se])NC(=O)c1cccs1 , no comment.
## Output 2.9

## Input State recorded Increase-fold with DU-145 cells, entry O=C1O[C@H]([C@@H](O)CO)C(O)=C1O [Asc. Acid, ascorbic acid, reference compound] , no comment.
## Output 3.6

## Input State recorded Increase-fold with DU-145 cells, entry C=CCNC(=[Se])NC(=O)c1cccnc1 [Compound 7.II, N-(allylcarbamoselenoyl)nicotinamide] , no comment.
## Output 1.5

## Input State recorded Increase-fold with DU-145 cells, entry CCCNC(=[Se])NC(=O)c1ccccc1 [Compound 5.I, N-(propylcarbamoselenoyl)benzamide] , no comment.
## Output 3.1

## Input State recorded Increase-fold with DU-145 cells, entry CCCNC(=[Se])NC(=O)c1ccco1 , no comment.
## Output 2.3

====

# System: HTB-54 (lung) cancer cell line
# ASSAY TEXT: MTT cell viability assay, HTB-54
# Assay type: cell-based, human
# DETAILS: Homo sapiens, HTB-54, 48 h, read-out: Cell growth %, HTB-54, 50 µM, 48 h, MTT
Give activity at 50 µM for every item shown.
Enter the number, and then the unit.

## Input Please report activity at 50 µM for the following compound: CCCNC(=[Se])NC(=O)c1cccs1 [Compound 2.I]
## Output 71.8%

## Input Please report activity at 50 µM for the following compound: C=CCNC(=[Se])NC(=O)c1ccc2c(c1)OCO2 [Compound 8.II]
## Output 20%

## Input Please report activity at 50 µM for the following compound: C=CCNC(=[Se])NC(=O)/C=C/c1ccc2c(c1)OCO2 [Compound 9.II]
## Output 60%

## Input Please report activity at 50 µM for the following compound: C=CCNC(=[Se])NC(=O)c1cccc(C(=O)NC(=[Se])NCC=C)c1 [Compound 10.II]
## Output 43.5%

## Input Please report activity at 50 µM for the following compound: C=CCNC(=[Se])NC(=O)c1cccs1 [Compound 2.II]
## Output 8.52%

## Input Please report activity at 50 µM for the following compound: CCCNC(=[Se])NC(=O)/C=C/c1ccccc1 [Compound 6.I, N-(propylcarbamoselenoyl)cinnamamide]
## Output 36.2%

## Input Please report activity at 50 µM for the following compound: C=CCNC(=[Se])NC(=O)c1cccnc1 [Compound 7.II, N-(allylcarbamoselenoyl)nicotinamide]
## Output 10.2%

## Input Please report activity at 50 µM for the following compound: C#CCNC(=[Se])NC(=O)c1cccs1 [Compound 2.III]
## Output 44.7%

## Input Please report activity at 50 µM for the following compound: C=CCNC(=[Se])NC(=O)c1ccco1 [Compound 1.II]
## Output 11.1%

====

Give inhibition for every item shown.
# ASSAY TEXT: DPPH radical scavenging assay
# Format: biochemical
# DETAILS: 0.03 mg/mL, 5 min
Your answer should be a plain number; it is taken to be in %.

## Input Please report inhibition for the following compound: C#CCNC(=[Se])NC(=O)c1ccco1
## Output 15.2

## Input Please report inhibition for the following compound: C=CCNC(=[Se])NC(=O)c1ccco1
## Output 45.2

## Input Please report inhibition for the following compound: C=CCNC(=[Se])NC(=O)c1cccs1
## Output 60.7

====

Give inhibition for every item shown.
# ASSAY TEXT: DPPH radical scavenging assay
# Assay type: biochemical
# DETAILS: 0.03 mg/mL, 15 min
Your answer should be a plain number; it is taken to be in %.

## Input Please report inhibition for the following compound: C=CCNC(=[Se])NC(=O)/C=C/c1cccs1 [Compound 4.II]
## Output 9.9

## Input Please report inhibition for the following compound: C#CCNC(=[Se])NC(=O)c1ccccc1 [Compound 5.III]
## Output 23

## Input Please report inhibition for the following compound: CCCNC(=[Se])NC(=O)c1cccs1 [Compound 2.I]
## Output 36.2

====

# ASSAY TEXT: DPPH radical scavenging assay
# Format: biochemical
# DETAILS: 0.03 mg/mL, 30 min
Please enter true where inhibition is greater than or equal to 20%, and false where it is lower.

## Input Quick check: does C=CCNC(=O)c1cccc(C(=O)NC(=[Se])NCC=C)c1 have inhibition greater than or equal to 20%?
## Output true

## Input Quick check: does C#CCNC(=[Se])NC(=O)c1ccco1 have inhibition greater than or equal to 20%?
## Output true

## Input Quick check: does CCCNC(=[Se])NC(=O)c1cccs1 have inhibition greater than or equal to 20%?
## Output true

## Input Quick check: does CCCNC(=[Se])NC(=O)/C=C/c1ccccc1 [Compound 6.I, N-(propylcarbamoselenoyl)cinnamamide] have inhibition greater than or equal to 20%?
## Output true

## Input Quick check: does C=CCNC(=[Se])NC(=O)/C=C/c1ccccc1 [Compound 6.II, N-(allylcarbamoselenoyl)cinnamamide] have inhibition greater than or equal to 20%?
## Output false

## Input Quick check: does C#CCNC(=[Se])NC(=O)c1cccs1 have inhibition greater than or equal to 20%?
## Output true

## Input Quick check: does C#CCNC(=[Se])NC(=O)c1ccccc1 have inhibition greater than or equal to 20%?
## Output true

## Input Quick check: does C=CCNC(=[Se])NC(=O)/C=C/c1ccco1 have inhibition greater than or equal to 20%?
## Output false
